- Tested on: Trichoderma viride
- Test method notes: Antifungal activity against Trichoderma viride MTCC 167 after 24 to 48 hrs by agar diffusion method; also: test concentration or dose not given here
- Format: functional
Measure name: inhibition zone (IZ) (mm)
Give the quantity in mm, number only.

Prompt: Form field: reported inhibition zone (IZ) of CCCCc1nc(Cl)c(C2CC(c3ccc(N)cc3)=NN2c2nc(-c3ccc(Cl)cc3)cs2)[nH]1 (stereo not drawn)
Completion: 12

Prompt: Another: CCCCc1nc(Cl)c(C2CC(c3cc(Cl)ccc3O)=NN2c2nc(-c3ccc(Cl)cc3)cs2)[nH]1 (stereo not drawn)
Completion: 15

Prompt: Another: CCCCc1nc(Cl)c(C2CC(c3ccccc3O)=NN2c2nc(-c3ccc(Cl)cc3)cs2)[nH]1 (stereo not drawn)
Completion: 16

Prompt: Another: CCCCc1nc(Cl)c(C2CC(c3cc(Cl)cc(I)c3O)=NN2c2nc(-c3ccc(Cl)cc3)cs2)[nH]1 (stereo not drawn)
Completion: 16

Prompt: Another: CCCCc1nc(Cl)c(C2CC(c3cc(Cl)cc(Br)c3O)=NN2c2nc(-c3ccc(Cl)cc3)cs2)[nH]1 (stereo not drawn)
Completion: 15

Prompt: Another: CCCCc1nc(Cl)c(C2CC(c3cc(Cl)c(C)c(Br)c3O)=NN2c2nc(-c3ccc(Cl)cc3)cs2)[nH]1 (stereo not drawn)
Completion: 16

Prompt: Another: CCCCc1nc(Cl)c(C2CC(c3cc(Br)cc(Br)c3O)=NN2c2nc(-c3ccc(Cl)cc3)cs2)[nH]1 (stereo not drawn)
Completion: 18

Prompt: Another: CCCCc1nc(Cl)c(C2CC(c3cc(C)cc(I)c3O)=NN2c2nc(-c3ccc(Cl)cc3)cs2)[nH]1 (stereo not drawn)
Completion: 14

====

- Test system: Bacillus subtilis
- Test method notes: Antibacterial activity against Bacillus subtilis MTCC 441 after 24 hrs by agar diffusion method; also: test concentration or dose not given here
- Format: functional
Measure name: inhibition zone (IZ) (mm)
Give the quantity in mm, number only.

Prompt: Form field: reported inhibition zone (IZ) of CCCCc1nc(Cl)c(C2CC(c3ccc(Cl)cc3)=NN2c2nc(-c3ccc(Cl)cc3)cs2)[nH]1 (centres undefined)
Completion: 14

Prompt: Another: CCCCc1nc(Cl)c(C2CC(c3cc(Br)cc(Br)c3O)=NN2c2nc(-c3ccc(Cl)cc3)cs2)[nH]1 (centres undefined)
Completion: 21

Prompt: Another: CCCCc1nc(Cl)c(C2CC(c3cc(Cl)ccc3O)=NN2c2nc(-c3ccc(Cl)cc3)cs2)[nH]1 (centres undefined)
Completion: 18

Prompt: Another: CCCCc1nc(Cl)c(C2CC(c3cc(C)cc(I)c3O)=NN2c2nc(-c3ccc(Cl)cc3)cs2)[nH]1 (centres undefined)
Completion: 12

====

Would you kindly list MIC for each of these molecules?
- System: Fusarium verticillioides
- Test method notes: Antifungal activity against Fusarium moniliforme MTCC 156 after 24 to 48 hrs by agar diffusion method
- Assay type: functional
- Experimental conditions: Fusarium verticillioides, MTCC 156
Give the quantity in µg/mL, number only.

Prompt: Request - read-out MIC | tested on Fusarium verticillioides | molecule CCCCc1nc(Cl)c(C2CC(c3ccc(OC)cc3)=NN2c2nc(-c3ccc(Cl)cc3)cs2)[nH]1 (stereo not drawn)
Completion: 25

Prompt: Another: CCCCc1nc(Cl)c(C2CC(c3cc(I)cc(I)c3O)=NN2c2nc(-c3ccc(Cl)cc3)cs2)[nH]1 (stereo not drawn)
Completion: 25

Prompt: Another: CCCCc1nc(Cl)c(C2CC(c3cc(C)cc(Br)c3O)=NN2c2nc(-c3ccc(Cl)cc3)cs2)[nH]1 (stereo not drawn)
Completion: 50

Prompt: Another: CCCCc1nc(Cl)c(C2CC(c3cc(C)cc(I)c3O)=NN2c2nc(-c3ccc(Cl)cc3)cs2)[nH]1 (stereo not drawn)
Completion: 50

Prompt: Another: CCCCc1nc(Cl)c(C2CC(c3cc(Cl)cc(I)c3O)=NN2c2nc(-c3ccc(Cl)cc3)cs2)[nH]1 (stereo not drawn)
Completion: 25

Prompt: Another: CCCCc1nc(Cl)c(C2CC(c3cc(Cl)c(C)c(Br)c3O)=NN2c2nc(-c3ccc(Cl)cc3)cs2)[nH]1 (stereo not drawn)
Completion: 25

Prompt: Another: CCCCc1nc(Cl)c(C2CC(c3cc(Cl)c(C)c(I)c3O)=NN2c2nc(-c3ccc(Cl)cc3)cs2)[nH]1 (stereo not drawn)
Completion: 25
